Tested on: PAK3;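 further: KINOMEscan kinase panel screen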
Conditions: concentration: 1 μM, replicates: in singlicate; n = 1
Lab note: compare %Inh with 7%, writing yes (1) if less and no (0) if equal or more.

1) Fc1cccc(COc2ccc(Nc3ncnc4nn5ccccc5c34)cc2Cl)c1 : no (0)
2) CC(C)N1CCC(n2cnc(-c3ccc(F)cc3)c2-c2ccnc(N)n2)CC1 : yes (1)
3) Nc1nc(-c2ccccn2)c(-c2ccnc3ccccc23)s1 : yes (1)
4) CCC(CC)(CC)n1cnc2c(N)ncnc21 : no (0)
5) FC(F)(F)c1cc(Nc2nccc(-c3c(-c4ccc(Cl)cc4)nn4ncccc34)n2)ccc1Cl : yes (1)
6) Nc1n[nH]c2nnc(-c3ccccc3)cc12 : yes (1)
7) CN1CCC(n2cnc(-c3ccc(F)cc3)c2-c2ccnc(NC3CCNCC3)n2)CC1 : no (0)
8) c1ccc(-c2ccc3c(-c4ccnc(Nc5ccc6c(c5)OCCO6)n4)cnn3n2)cc1 : no (0)
9) Cc1cccc(-c2nc(Nc3ccc4[nH]nnc4c3)c3ccccc3n2)n1 : yes (1)
10) Cn1ccc2ncnc(Oc3ccc(NC(=O)Nc4cccnc4)c(Cl)c3)c21 : no (0)

The measurements presented in this section are drawn from paper PMC5540273.
